Biological target: Fuc(a1-3)[Gal(b1-4)]GlcNAc(b1-6)GalNAc
Assay: glycan array binding signal (z-score within array); higher = stronger binding
Details: glycan notation: IUPAC condensed, linker removed
About 410 targets per protein were measured; listed, in parts, are those with the strongest signals and a random draw of the rest.
Recorded Endpoint: glycan array binding signal (z-score)

Binder: Protectin (Homo sapiens), P13987 (protein) MGIQGGSVLFGLLLVLAVFCHSGHSLQCYNCPNPTADCKTAVNCSSDFDACLITKAGLQVYNKCWKFEHCNFNDVTTRLRENELTYYCCKKDLCNFNEQLENGGTSLSEKTVLLLVTPFLAAAWSLHP
Recorded Endpoint: glycan array binding signal (z-score)
Meas Value: 2.63
//
Binder: rCnSL-A (Clitocybe nebularis) (protein) VNPNLPGPNDVFVGFRGTNNIVGAIYEKDGIKDTPLNNGADAEMGPGSYITDGLFTARIFASGSAGNNPGTTATVCKIYASGVQWRGAPKGYIPVAYFGNGPTAEQRRQTYLRTLGLPGTAIRFGNLNTNPGQGPTAPRQMVVPPGPLRSLLKASCFPAADTRLPQTLHYFEKRVDWNIITAADSQTWGH
Recorded Endpoint: glycan array binding signal (z-score)
Meas Value: -0.093

Could you now look at the following binder, please?
Given item Gal 4 (Mus musculus), P56470 (protein) MAYVPAPGYQPTYNPTLPYYQPIPGGLNVGMSVYIQGVASEHMKRFFVNFVVGQDPGSDVAFHFNPRFDGWDKVVFNTLQGGKWGSEERKRSMPFKKGAAFELVFIVLAEHYKVVVNGNPFYEYGHRLPLQMVTHLQVDGDLQLQSINFIGGQPLRPQGPPMMPPYPGPGHCHQQLNSLPTMEGPPTFNPPVPYFGRLQGGLTARRTIIIKGYVPPTGKSFAINFKVGSSGDIALHINPRMGNGTVVRNSLLNGSWGSEEKKITHNPFGPGQFFDLSIRCGLDRFKVYANGQHLFDFAHRLSAFQRVDTLEIQGDVTLSYVQI , the value recorded as its glycan array binding signal (z-score) is -0.301
